- system: Aurora2 (Homo sapiens)
- Sequence (O14965 1-403): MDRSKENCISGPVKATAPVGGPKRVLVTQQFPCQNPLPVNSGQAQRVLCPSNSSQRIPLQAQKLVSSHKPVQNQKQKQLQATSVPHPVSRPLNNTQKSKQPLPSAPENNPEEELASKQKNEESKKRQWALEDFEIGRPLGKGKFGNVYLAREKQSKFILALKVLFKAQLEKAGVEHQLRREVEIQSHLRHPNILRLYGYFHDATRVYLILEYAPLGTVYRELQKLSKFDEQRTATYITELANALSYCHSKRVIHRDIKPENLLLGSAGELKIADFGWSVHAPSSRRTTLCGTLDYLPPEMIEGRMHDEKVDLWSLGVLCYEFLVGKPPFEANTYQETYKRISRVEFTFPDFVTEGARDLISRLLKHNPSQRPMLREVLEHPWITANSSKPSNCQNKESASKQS
pIC50: −log10 of the molar value.
quantity kind: pIC50

Record excerpt, results attached:
- molecule: "Cc1ccc(Nc2nccc(-c3nccs3)n2)cc1 [Compound I-67]"
  pIC50: "> 6.30"
- molecule: "Clc1cccc(Cl)c1Nc1nccc(-c2nccs2)n1 [Compound I-61]"
  pIC50: "< 5.70"
- molecule: "FC(F)(F)c1cccc(COc2cccc(Nc3nccc(-c4nccs4)n3)c2)c1 [Compound I-106]"
  pIC50: "< 5.70"
- molecule: "Nc1ccccc1COc1cccc(Nc2nccc(-c3nccs3)n2)c1 [Compound I-38]"
  pIC50: "> 6.30"
- molecule: "Clc1cccc(Nc2nccc(-c3nccs3)n2)n1 [Compound I-28]"
  pIC50: "< 5.70"
- molecule: "c1cc(Nc2nccc(-c3nccs3)n2)cc(OCc2ccncc2)c1 [Compound I-8]"
  pIC50: "> 6.30"

Task: Answer with reported pIC50 of COc1ccc(Nc2nccc(-c3nccs3)n2)cc1 [Compound I-70]
Output: 5.70 to 6.30

Task: Please give measured pIC50 of the following entry: Clc1ccc(Nc2nccc(-c3nccs3)n2)cc1 [Compound I-46]
Output: < 5.70

Task: Find the measured pIC50 of O=[N+]([O-])c1ccc(Nc2nccc(-c3nccs3)n2)cc1 [Compound I-40] and report it.
Output: < 5.70

Task: Name the recorded pIC50 of the item Fc1ccc(COc2cccc(Nc3nccc(-c4nccs4)n3)c2)cc1 [Compound I-109] in your answer.
Output: < 5.70

Task: Give the measured pIC50 for Fc1cccc(Nc2nccc(-c3nccs3)n2)c1 [Compound I-19]
Output: 5.70 to 6.30

Task: Specify reported pIC50 for the molecule shown: Fc1ccccc1COc1cccc(Nc2nccc(-c3nccs3)n2)c1 [Compound I-41]
Output: < 5.70

Task: Give a short answer stating reported pIC50 for Fc1cccc(COc2cccc(Nc3nccc(-c4nccs4)n3)c2)c1 [Compound I-100] .
Output: < 5.70

Task: Return pIC50 for the following molecule: c1cc(Nc2nccc(-c3nccs3)n2)cc(OCCn2cccc2)c1 [Compound I-29]
Output: > 6.30

====

- system: Aurora2 (Homo sapiens)
- Sequence (O14965 1-403): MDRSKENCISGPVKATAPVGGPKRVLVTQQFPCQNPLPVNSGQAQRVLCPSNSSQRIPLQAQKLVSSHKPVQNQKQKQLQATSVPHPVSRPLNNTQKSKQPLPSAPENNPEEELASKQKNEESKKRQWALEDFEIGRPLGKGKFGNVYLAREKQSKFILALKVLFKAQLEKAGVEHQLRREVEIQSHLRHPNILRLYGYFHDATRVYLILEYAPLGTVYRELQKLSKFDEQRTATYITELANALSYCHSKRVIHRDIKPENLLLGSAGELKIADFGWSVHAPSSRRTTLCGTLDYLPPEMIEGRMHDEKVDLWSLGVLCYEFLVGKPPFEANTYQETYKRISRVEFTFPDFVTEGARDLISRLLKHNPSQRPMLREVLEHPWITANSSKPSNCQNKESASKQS
pIC50: −log10 of the molar value.
# pIC50 annotations

- compound: "Fc1cc(F)cc(COc2cccc(Nc3nccc(-c4nccs4)n3)c2)c1 [Compound I-103]"
  pIC50: "< 5.70"
- compound: "Brc1cccc(Nc2nccc(-c3nccs3)n2)c1 [Compound I-34]"
  pIC50: "> 6.30"
- compound: "Fc1cc(Nc2nccc(-c3nccs3)n2)cc(F)c1F [Compound I-58]"
  pIC50: "< 5.70"
- compound: "Clc1cccc(COc2cccc(Nc3nccc(-c4nccs4)n3)c2)c1Cl [Compound I-112]"
  pIC50: "< 5.70"
- compound: "Nc1cccc(COc2cccc(Nc3nccc(-c4nccs4)n3)c2)c1 [Compound I-14]"
  pIC50: "5.70 to 6.30"

Task: Quickly give me recorded pIC50 for c1ccc(Oc2ccc(Nc3nccc(-c4nccs4)n3)cc2)cc1 [Compound I-13]
Output: < 5.70

Task: Look up pIC50 of Fc1ccc(Nc2nccc(-c3nccs3)n2)cc1F [Compound I-49] and report it.
Output: 5.70 to 6.30
